EXPERIMENTAL_PROTOCOL: molar heat capacity at constant pressure
TEST_CONTEXT: 75 K; 101.33 kPa; Crystal; relaxation calorimetry
± gives the expanded uncertainty stated by the source.
For each entry below, report its molar heat capacity at constant pressure value.
Write the numeric value and append its unit.

Incoming: Value lookup for molar heat capacity at constant pressure; key = OC[C@@H](O)[C@@H](O)CO
Outgoing: 48.3 ± 3 J/K/mol

Incoming: Value lookup for molar heat capacity at constant pressure; key = O[C@H]1[C@H](O)[C@@H](O)[C@H](O)[C@@H](O)[C@H]1O [cis-1,2,3,5-trans-4,6-cyclohexanehexol]
Outgoing: 51.04 ± 3.1 J/K/mol

Incoming: Value lookup for molar heat capacity at constant pressure; key = OC[C@@H](O)[C@@H](O)[C@H](O)[C@H](O)CO
Outgoing: 66.19 ± 4.1 J/K/mol

Incoming: Value lookup for molar heat capacity at constant pressure; key = OC[C@@H](O)[C@H](O)[C@@H](O)CO
Outgoing: 56.38 ± 3.5 J/K/mol

Incoming: Value lookup for molar heat capacity at constant pressure; key = OC[C@H](O)C(O)[C@@H](O)CO [L-(-)-arabitol]
Outgoing: 58.73 ± 3.6 J/K/mol

Incoming: Value lookup for molar heat capacity at constant pressure; key = OC[C@@H](O)C(O)[C@H](O)CO
Outgoing: 58.37 ± 3.6 J/K/mol

====

TEST_CONTEXT: 8 K; 101.33 kPa; Crystal; relaxation calorimetry
Doc: threshold 0.2 J/K/mol (exclusive). Items with molar entropy beneath it return true; others return false.

Incoming: Does the reported molar entropy of OC[C@@H](O)C(O)[C@H](O)CO stay below 0.2 J/K/mol?
Outgoing: true

Incoming: Does the reported molar entropy of OC[C@H](O)C(O)[C@@H](O)CO [L-(-)-arabitol] stay below 0.2 J/K/mol?
Outgoing: true

Incoming: Does the reported molar entropy of OC[C@@H](O)[C@@H](O)CO stay below 0.2 J/K/mol?
Outgoing: true

Incoming: Does the reported molar entropy of OC[C@@H](O)[C@H](O)[C@@H](O)CO stay below 0.2 J/K/mol?
Outgoing: true

Incoming: Does the reported molar entropy of OC[C@@H](O)[C@@H](O)[C@H](O)[C@H](O)CO stay below 0.2 J/K/mol?
Outgoing: true

Incoming: Does the reported molar entropy of O[C@H]1[C@H](O)[C@@H](O)[C@H](O)[C@@H](O)[C@H]1O [cis-1,2,3,5-trans-4,6-cyclohexanehexol] stay below 0.2 J/K/mol?
Outgoing: false

====

For each entry below, report its molar heat capacity at constant pressure value.
EXPERIMENTAL_PROTOCOL: molar heat capacity at constant pressure
TEST_CONTEXT: 301.15 K; 101.33 kPa; Crystal; Small sample (50 mg) DSC
Use J/K/mol as the unit, but write only the number.

Incoming: Value lookup for molar heat capacity at constant pressure; key = OC[C@@H](O)[C@@H](O)CO
Outgoing: 166.37

Incoming: Value lookup for molar heat capacity at constant pressure; key = OC[C@H](O)C(O)[C@@H](O)CO [L-(-)-arabitol]
Outgoing: 209.11

Incoming: Value lookup for molar heat capacity at constant pressure; key = OC[C@@H](O)[C@H](O)[C@@H](O)CO
Outgoing: 211.84

Incoming: Value lookup for molar heat capacity at constant pressure; key = OC[C@@H](O)C(O)[C@H](O)CO
Outgoing: 203.27

Incoming: Value lookup for molar heat capacity at constant pressure; key = OC[C@@H](O)[C@@H](O)[C@H](O)[C@H](O)CO
Outgoing: 232.46

Incoming: Value lookup for molar heat capacity at constant pressure; key = O[C@H]1[C@H](O)[C@@H](O)[C@H](O)[C@@H](O)[C@H]1O [cis-1,2,3,5-trans-4,6-cyclohexanehexol]
Outgoing: 219.99

====

TEST_CONTEXT: 25 K; 101.33 kPa; Crystal; relaxation calorimetry
MEASURED_ATTRIBUTE: molar entropy (J/K/mol)
Use J/K/mol as the unit, but write only the number.

Incoming: Value lookup for molar entropy; key = OC[C@@H](O)[C@H](O)[C@@H](O)CO
Outgoing: 4.334

Incoming: Value lookup for molar entropy; key = OC[C@@H](O)C(O)[C@H](O)CO
Outgoing: 4.457

Incoming: Value lookup for molar entropy; key = OC[C@@H](O)[C@@H](O)[C@H](O)[C@H](O)CO
Outgoing: 5.087

Incoming: Value lookup for molar entropy; key = O[C@H]1[C@H](O)[C@@H](O)[C@H](O)[C@@H](O)[C@H]1O [cis-1,2,3,5-trans-4,6-cyclohexanehexol]
Outgoing: 5.648

Incoming: Value lookup for molar entropy; key = OC[C@@H](O)[C@@H](O)CO
Outgoing: 4.373

Incoming: Value lookup for molar entropy; key = OC[C@H](O)C(O)[C@@H](O)CO [L-(-)-arabitol]
Outgoing: 4.532

====

EXPERIMENTAL_PROTOCOL: molar heat capacity at constant pressure
TEST_CONTEXT: 337.15 K; 101.33 kPa; Crystal; Small sample (50 mg) DSC
MEASURED_ATTRIBUTE: molar heat capacity at constant pressure (J/K/mol)
Use J/K/mol as the unit, but write only the number.

Incoming: Value lookup for molar heat capacity at constant pressure; key = OC[C@@H](O)[C@@H](O)[C@H](O)[C@H](O)CO
Outgoing: 264.87

Incoming: Value lookup for molar heat capacity at constant pressure; key = OC[C@@H](O)C(O)[C@H](O)CO
Outgoing: 237.46

Incoming: Value lookup for molar heat capacity at constant pressure; key = O[C@H]1[C@H](O)[C@@H](O)[C@H](O)[C@@H](O)[C@H]1O [cis-1,2,3,5-trans-4,6-cyclohexanehexol]
Outgoing: 251.96

Incoming: Value lookup for molar heat capacity at constant pressure; key = OC[C@@H](O)[C@H](O)[C@@H](O)CO
Outgoing: 242.09

Incoming: Value lookup for molar heat capacity at constant pressure; key = OC[C@@H](O)[C@@H](O)CO
Outgoing: 188.31

====

EXPERIMENTAL_PROTOCOL: molar heat capacity at constant pressure
TEST_CONTEXT: 25 K; 101.33 kPa; Crystal; relaxation calorimetry
MEASURED_ATTRIBUTE: molar heat capacity at constant pressure (J/K/mol)
Use J/K/mol as the unit, but write only the number.

Incoming: Value lookup for molar heat capacity at constant pressure; key = OC[C@@H](O)[C@H](O)[C@@H](O)CO [xylitol]
Outgoing: 10.45

Incoming: Value lookup for molar heat capacity at constant pressure; key = OC[C@H](O)C(O)[C@@H](O)CO [L-(-)-arabitol]
Outgoing: 11.59

Incoming: Value lookup for molar heat capacity at constant pressure; key = O[C@H]1[C@H](O)[C@@H](O)[C@H](O)[C@@H](O)[C@H]1O [cis-1,2,3,5-trans-4,6-cyclohexanehexol]
Outgoing: 12.09

Incoming: Value lookup for molar heat capacity at constant pressure; key = OC[C@@H](O)C(O)[C@H](O)CO [D-arabitol]
Outgoing: 11.45

Incoming: Value lookup for molar heat capacity at constant pressure; key = OC[C@@H](O)[C@@H](O)[C@H](O)[C@H](O)CO [D-mannitol]
Outgoing: 13.01

Incoming: Value lookup for molar heat capacity at constant pressure; key = OC[C@@H](O)[C@@H](O)CO [meso-1,2,3,4-butanetetrol]
Outgoing: 10.62

====

TEST_CONTEXT: Crystal; DTA
Doc: threshold 100 °C (exclusive). Items with Normal melting temperature beneath it return t; others return f.

Incoming: Does the reported Normal melting temperature of OC[C@H](O)C(O)[C@@H](O)CO [L-(-)-arabitol] stay below 100 °C?
Outgoing: t

Incoming: Does the reported Normal melting temperature of OC[C@@H](O)[C@H](O)[C@@H](O)CO [xylitol] stay below 100 °C?
Outgoing: t

Incoming: Does the reported Normal melting temperature of O[C@H]1[C@H](O)[C@@H](O)[C@H](O)[C@@H](O)[C@H]1O [cis-1,2,3,5-trans-4,6-cyclohexanehexol] stay below 100 °C?
Outgoing: f

Incoming: Does the reported Normal melting temperature of OC[C@@H](O)[C@@H](O)[C@H](O)[C@H](O)CO [D-mannitol] stay below 100 °C?
Outgoing: f

Incoming: Does the reported Normal melting temperature of OC[C@@H](O)[C@@H](O)CO [meso-1,2,3,4-butanetetrol] stay below 100 °C?
Outgoing: f

====

EXPERIMENTAL_PROTOCOL: molar heat capacity at constant pressure
TEST_CONTEXT: 226.15 K; 101.33 kPa; Crystal; Small sample (50 mg) DSC
MEASURED_ATTRIBUTE: molar heat capacity at constant pressure (J/K/mol)
Use J/K/mol as the unit, but write only the number.

Incoming: Value lookup for molar heat capacity at constant pressure; key = OC[C@@H](O)[C@@H](O)CO
Outgoing: 126.8

Incoming: Value lookup for molar heat capacity at constant pressure; key = O[C@H]1[C@H](O)[C@@H](O)[C@H](O)[C@@H](O)[C@H]1O [cis-1,2,3,5-trans-4,6-cyclohexanehexol]
Outgoing: 163.3

Incoming: Value lookup for molar heat capacity at constant pressure; key = OC[C@@H](O)C(O)[C@H](O)CO
Outgoing: 152.68

Incoming: Value lookup for molar heat capacity at constant pressure; key = OC[C@@H](O)[C@@H](O)[C@H](O)[C@H](O)CO
Outgoing: 177.3

Incoming: Value lookup for molar heat capacity at constant pressure; key = OC[C@@H](O)[C@H](O)[C@@H](O)CO
Outgoing: 158.84

Incoming: Value lookup for molar heat capacity at constant pressure; key = OC[C@H](O)C(O)[C@@H](O)CO [L-(-)-arabitol]
Outgoing: 157.32
